Target: T1, ecdTDR mutant with all five N-terminal anchoring site-binding residues replaced by alanine (Arabidopsis thaliana, UniProt Q9FII5 30-642)
T1 chain: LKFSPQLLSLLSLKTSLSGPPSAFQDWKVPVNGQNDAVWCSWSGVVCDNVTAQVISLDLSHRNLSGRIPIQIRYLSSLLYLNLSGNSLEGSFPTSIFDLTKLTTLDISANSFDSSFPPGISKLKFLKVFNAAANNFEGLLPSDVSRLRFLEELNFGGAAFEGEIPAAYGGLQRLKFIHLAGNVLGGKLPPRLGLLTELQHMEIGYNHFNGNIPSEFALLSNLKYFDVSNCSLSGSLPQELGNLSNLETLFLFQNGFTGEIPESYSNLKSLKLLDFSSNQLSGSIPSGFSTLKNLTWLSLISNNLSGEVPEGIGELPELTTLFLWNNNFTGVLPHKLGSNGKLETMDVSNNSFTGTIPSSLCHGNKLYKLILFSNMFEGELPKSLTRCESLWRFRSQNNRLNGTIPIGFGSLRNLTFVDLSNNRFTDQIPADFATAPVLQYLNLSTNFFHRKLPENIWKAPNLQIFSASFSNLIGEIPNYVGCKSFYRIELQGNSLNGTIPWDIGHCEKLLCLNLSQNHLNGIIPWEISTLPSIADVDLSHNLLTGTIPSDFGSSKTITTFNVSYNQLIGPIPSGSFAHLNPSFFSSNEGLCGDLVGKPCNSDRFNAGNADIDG
Experiment: ITC
Square brackets hold non-standard residues; d marks the D form. Ends that are not written are not given here. Hyp = O=C(O)[C@@H]1C[C@@H](O)CN1
REPORTED ENDPOINT: pKd
To interpret pKd, take it as minus log10 of a concentration measured in moles per litre.

Prompt line: Entry HEV[Hyp]SG[Hyp]NPISN (TDIF, the 12-residue CLE peptide processed from CLE41 and CLE44 of A. thaliana; printed as HEV(Hyp)SG(Hyp)NPISN; numbers count on: the 12-residue peptide; CLE44 encodes the same peptide; also called wild type TDIF; wtTDIF; source: synthetic peptide (peptide 2.0)) [Tracheary Element Differentiation Inhibitory Factor (TDIF) peptide] has what pKd?
Response line: 5.49
